Provenance of the data: ChEMBL document CHEMBL1201862

# Tested on: SN12C
# ASSAY_SUMMARY: NCI tumour cell line growth inhibition, 48 h
The source made the active and inactive calls. No stated cut-off is given here; in the data, active = GI50 up to about 1.1 µM and inactive = higher.
Thanks in advance; please answer with one of these: active, inactive

Request: # outcome recorded in this test, key = CC(=O)Nc1ccc(/C=C/C(=O)c2sc(C(N)=S)nc2C)cc1
Response: inactive

Request: Hey, what did the test say about CC(C)c1c(P(=O)(c2ccccc2)c2ccccc2)n(C)c2ccccc12 ?
Response: inactive

Request: Give the logged outcome of this assay for the following compound: O=C1c2ccccc2CC12Cc1ccc3c(c1C2)CCC3 (stereo unspecified)
Response: inactive

Request: Call for entry O=C(O)C1CC2(C1)CC(C(=O)O)C2 (stereo unspecified) :
Response: inactive

Request: Given CCOC(=O)C(/N=N\c1ccc(S(N)(=O)=O)cc1)C(C)=O (stereo unspecified) , state the outcome it received in this test.
Response: inactive

Request: Record request — test call for Cc1cc(S(=O)(=O)Nc2nc(Nc3ccccc3)n[nH]2)c(SSc2cc(Cl)c(C)cc2S(=O)(=O)Nc2nc(Nc3ccccc3)n[nH]2)cc1Cl
Response: inactive

Request: Just curious, what result did CCC(=O)Oc1ccc2c(c1)c(=O)c1c(NCCCN(C)C)ccc3nnn2c31 get here?
Response: active

Request: # outcome recorded in this test, key = O=C1N/C(=N/N=C/C(O)C(O)C(O)CO)N/C1=C\c1c[nH]c2ccccc12 (stereo unspecified)
Response: inactive

Request: Recorded test call requested for c1ccc2c3nnc(c2c1)SCCSCCCSCCS3
Response: inactive

Request: Could you kindly confirm the outcome this assay logged for NCCCOCC(=O)O ?
Response: inactive

Request: What did this assay record as the result for CCOc1c2c(cc3c1C(=O)c1c(OC)cccc1C3=O)C=C(OC)CC2 ?
Response: inactive

* * *

# System: MDA-MB-435
# ASSAY_SUMMARY: NCI tumour cell line growth inhibition, 48 h
Calls of active or inactive are those of the source. Cut-off read from the data, not from the text of the source: active = GI50 up to about 1.1 µM and inactive = higher.
Exercise: for every item that follows, state its recorded GI50.

Request: Looking for the measured GI50 of COc1cccc(Nc2nc(-c3cccs3)nc3cc(OC)c(OC)cc23)c1 , can you help?
Response: 31.3 µM (inactive)

Request: Looking for the measured GI50 of COc1ccc(Cc2c(-c3ccc(C)cc3)n[nH]c(=O)c2C2C(=O)N(c3ccccc3)N=C2c2ccccc2)cc1 (configuration not stated) , can you help?
Response: 20.3 µM (inactive)

Request: Quick one: GI50 of OC(Cc1cccc2ccccc12)CN1CCC(c2ccccc2)CC1 (configuration not stated) ?
Response: 15.1 µM (inactive)

Request: # query: GI50 of entry c1ccc2c3nnc(c2c1)SCCSCCCSCCS3
Response: > 100 µM (inactive)

Request: Look up GI50: COc1ccc2[nH]c3cc4c(=O)c5cc(OC)ccc5[nH]c4cc3c(=O)c2c1
Response: > 100 µM (inactive)

Request: Which GI50 value is on record for OC1c2ccccc2[C@@H]2[C@H]1[C@@H](c1ccccc1)C1(Cc3ccccc3C1O)[C@H]2c1ccccc1 (some centres not stated) ?
Response: 2.82 µM (inactive)

Request: # lookup: GI50 of CC(=O)Nc1cc([As](=O)(O)O)ccc1O
Response: > 100 µM (inactive)

* * *

# Test system: LXFL 529
# ASSAY_SUMMARY: NCI tumour cell line growth inhibition, 48 h
Calls of active or inactive are those of the source. No stated cut-off is given here; in the data, active = GI50 up to about 1.1 µM and inactive = higher.
Choose the fitting class; nothing outside T for active, F for inactive is accepted.

Request: Please let me know the test result on file for C#Cc1cccc(N2C(=O)CC(=P(c3ccccc3)(c3ccccc3)c3ccccc3)C2=O)c1 .
Response: F

Request: Look up the recorded call for COc1ccc(N(C)Sc2ccccc2)cc1 in this test.
Response: F

Request: // return assay outcome for C[C@@H]1[C@@H]2[C@@H](C=C3C4CCC5Cc6nc7c(nc6C[C@@]5(C)C4C[C@H](O)[C@]32CO)CC2CCC3C4=C[C@H]5O[C@@]6(OC(C)(CO)C[C@@H]6O)[C@H](C)[C@@]5(O)[C@]4(C)[C@@H](O)CC3[C@]2(C)C7)O[C@]12CCC(C)(C)O2 (stereo partly drawn)
Response: T

Request: // param item: C/C(CCn1[nH]c(=O)ccc1=O)=N\N=C(N)N ; yields the recorded call
Response: F

Request: For CC(C)(C)C1CC[C@H]2c3c([nH]c4ccccc34)[C@H]3C(=O)N(c4ccc(F)cc4)C(=O)[C@H]3[C@H]2C1 (stereo partly drawn) , what call appears in the results of this test?
Response: F

Request: Outcome logged for O=c1cc(-c2ccccc2)oc2ccc(Cl)cc12 in this assay:
Response: F

Request: So what was the verdict on [O-][S+]1CSCS1 (stereo not drawn) in this test?
Response: F

Request: For this molecule, state the assay outcome: Cc1cc2c3ccccc3n(C)c2c2c1C(=O)C=CC2=O
Response: F

Request: Please let me know the test result on file for CN1C(=O)N(C)C2(O)c3ccccc3C(=O)C12O (stereo not drawn) .
Response: F

Request: Outcome? Nc1ccc(C(=O)NN2C(=O)C(Cl)C2c2cc(Br)cc(Br)c2O)cc1 (stereo not drawn)
Response: F

Request: Which outcome did this test record for the molecule CC1(CO)OC(n2cc(C(=O)NC(=O)OCc3ccccc3)c(=O)[nH]c2=O)CC1O (stereo not drawn) ?
Response: F

Request: Tell me the assay call for CN(C)c1nc(N(C)C)nc(N(C)C)n1 please.
Response: F

Request: Give the logged outcome of this assay for the following molecule: O=[N+]([O-])c1ccccc1C1SCc2nc3ccccc3n21 (stereo not drawn)
Response: F

Request: Given Cc1ccc(S(=O)(=O)c2c(N)n(CCN(C)C)c3nc4ccccc4nc23)cc1 , state the outcome it received in this test.
Response: F

Request: Name the outcome recorded for Cc1ccc(S(=O)(=O)N(CC(=O)O)c2ccccc2)cc1 in the assay.
Response: F

Request: Status in this test for CCOC(=O)c1sc2c(sc(=O)n2-c2ccccc2)c1O ?
Response: F

Request: Record lookup: outcome of this test for COc1ccc2c3c1O[C@]1(C)C34CCN(C)C(C2)C42C=C[C@@]1(OC)c1c(O)ccc(O)c12 ?
Response: F

Request: Recorded call for O=NN(CCCl)C(=O)NC1CCCCC1 ?
Response: F

Request: For CN(C)NC1=C([N+](=O)[O-])C=NN(c2ccccc2)C1 , which call appears in the assay record?
Response: F

Request: What call does the record list for CC(=O)O[C@H]1C(N(C)C(=O)c2ccccc2)CC[C@]2(C)C3CC[C@@]4(C)C(CC(O)[C@@H]4C(C)N(C)C)[C@@H]3CCC12 (stereo partly drawn) ?
Response: F

Request: Per the assay record, what outcome was assigned to CC1(c2ccccc2)CC12C(=O)NC(=O)NC2=O (stereo not drawn) ?
Response: F

Request: Outcome? CCN(CC)CCn1c2ccccc2c(=O)c2c(O)ccc(O)c21
Response: F

Request: # outcome recorded in this test, key = Nc1c(-c2ccc(Cl)cc2Cl)[n+]([O-])c2ccccc2[n+]1[O-]
Response: F

Request: Dear colleague, could you share the recorded outcome for Cc1cc(C)cc(Sc2c([N+](=O)[O-])ncn2C)c1 when you have a moment?
Response: F

Request: Called result for CCNC(=O)c1ccc(C)c(/N=N/N(C)C)c1
Response: F

Request: Hey, what did the test say about CC1CC(C)C(=O)C(C(=O)CC2CC(=O)NC2=O)C1 (stereo not drawn) ?
Response: F

Request: Tell me the recorded outcome of this test for CCn1c(CSc2nc(-c3ccccc3)c(-c3ccccc3)[nH]2)n[nH]c1=S .
Response: F

Request: Answer briefly: the call reported for NC1=C(C(=O)O)C(=O)C(Nc2c(O)cccc2C(=O)O)=CC1=O in this assay.
Response: F

Request: Can you look up the reported call for COc1ccc(N2C(=O)[C@H]3[C@H]4CC(C(C)(C)C)CC[C@H]4c4c(n(C)c5ccccc45)[C@H]3C2=O)cc1 (stereo partly drawn) for me?
Response: F

Request: Give the logged outcome of this assay for the following molecule: O=C(CCN1CCC(CCO)CC1)Nc1ccc2c(c1)C(=O)c1ccc(NC(=O)CCN3CCC(CCO)CC3)cc1C2=O
Response: F

Request: Please let me know the test result on file for Nc1nc(CCl)nc(Nc2ccccc2)n1 .
Response: F

Request: Hello, I am checking results. What call was entered for O=[N+]([O-])c1ccc(C2=NN(c3ccccc3)C[N+](c3ccc(Br)cc3)=N2)cc1 ?
Response: F

Request: For CN(C)c1ccc2c(c1)C(=O)N(OS(=O)(=O)c1ccc([N+](=O)[O-])cc1)C2=O , which call appears in the assay record?
Response: F

* * *

# Test system: OVCAR-5
# ASSAY_SUMMARY: NCI tumour cell line growth inhibition, 48 h
Calls of active or inactive are those of the source. No stated cut-off is given here; in the data, active = GI50 up to about 1.1 µM and inactive = higher.
I'd be grateful if you could share measured GI50 for these entries.

Request: Give OVCAR-5 GI50 for Cc1c(C#N)c(N)n(C2OC(CO)C(O)C(O)C2O)c(=S)c1C#N (stereo unspecified)
Response: > 100 µM (inactive)

Request: # value lookup — system OVCAR-5, readout GI50, item CCOC(=O)[C@@H]1CCN2CN(c3ccc(OC)cc3)N=C(c3ccccc3)[C@@]12c1ccccc1
Response: 32.2 µM (inactive)

Request: GI50, test system OVCAR-5, entry CN(C)c1ccc2c(c1)C(=O)N(OS(=O)(=O)c1ccc([N+](=O)[O-])cc1)C2=O
Response: 25.4 µM (inactive)

Request: Look up GI50 with OVCAR-5 for this compound: CC(=O)Nc1cc([As](=O)(O)O)ccc1O [ACETARSONE]
Response: > 100 µM (inactive)

Request: Form field: GI50 recorded for CC(=O)OC1CC2(C)C(=CC1C1SCCS1)CCC1C2CCC2(C)C(OC(C)=O)CCC12 (stereo unspecified) with OVCAR-5 (enter value)
Response: > 100 µM (inactive)

Request: What value of GI50 on OVCAR-5 does CCc1cccc(C(C)(C)C)c1NC(=S)N/C=C(/C#N)C(N)=O have?
Response: > 100 µM (inactive)
